Study target: human serum albumin (HSA) (Homo sapiens)
Sequence (P02768 25-609): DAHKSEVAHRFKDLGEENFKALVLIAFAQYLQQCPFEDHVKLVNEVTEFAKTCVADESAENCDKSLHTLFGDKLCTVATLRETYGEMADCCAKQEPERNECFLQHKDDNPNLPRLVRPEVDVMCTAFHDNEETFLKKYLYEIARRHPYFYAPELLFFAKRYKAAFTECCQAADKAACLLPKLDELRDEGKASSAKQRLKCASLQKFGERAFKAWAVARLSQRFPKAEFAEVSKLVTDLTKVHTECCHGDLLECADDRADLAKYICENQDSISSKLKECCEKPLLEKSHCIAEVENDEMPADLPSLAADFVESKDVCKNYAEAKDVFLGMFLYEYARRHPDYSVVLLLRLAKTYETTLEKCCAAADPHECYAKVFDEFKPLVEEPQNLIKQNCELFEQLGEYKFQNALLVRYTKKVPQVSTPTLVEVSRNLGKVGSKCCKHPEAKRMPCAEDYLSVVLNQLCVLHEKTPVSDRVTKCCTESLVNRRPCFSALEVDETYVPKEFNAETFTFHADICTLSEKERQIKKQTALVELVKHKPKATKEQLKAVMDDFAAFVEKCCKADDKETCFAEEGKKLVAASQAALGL
Protocol summary: HSA binding energetics via isothermal titration calorimetry (ITC)
Run conditions: ITC, 25.0 °C, 10 mM sodium phosphate pH 7.4
Property label: Kd (nM)

>  <Chemical string>
O=C(O)c1cc(Cc2cc(Cc3cc(Cc4cc(Cc5cc(Cc6cc(Cl)c(O)c(C(=O)O)c6)c(O)c(C(=O)O)c5)c(O)c(C(=O)O)c4)cc(C(=O)O)c3O)cc(C(=O)O)c2O)cc(Cl)c1O

>  <Property label>
Kd

>  <Endpoint value>
1000

$$$$

====

Study target: yeast 80S ribosomes
Protocol summary: Ligand–ribosome binding via fluorescence anisotropy
Run conditions: 25 °C, fluorescence anisotropy
pKd: −log10 of the molar value.
Property label: pKd

>  <Compound>
O=C(O)c1cc(Cc2cc(Cc3cc(Cc4cc(Cc5cc(Cc6cc(Cl)c(O)c(C(=O)O)c6)c(O)c(C(=O)O)c5)c(O)c(C(=O)O)c4)cc(C(=O)O)c3O)cc(C(=O)O)c2O)cc(Cl)c1O [compound 11]

>  <Study target>
yeast 80S ribosomes

>  <Property label>
pKd

>  <Endpoint value>
6.68

$$$$

====

Study target: SARS-CoV-2 RdRp (nsp12/7/8 complex) (Severe acute respiratory syndrome coronavirus 2, UniProt P0DTD1)
Protocol summary: Inhibition of SARS-CoV-2 RdRp active complex (RNA extension assay)
Run conditions: RdRp-mediated RNA replication, 37 °C, 60 min, 1 μM RdRp complex
pIC50: −log10 of the molar value.

>  <Molecule>
O=C(O)c1cc(Cc2cc(Cc3cc(Cc4cc(Cc5cc(Cc6cc(Cl)c(O)c(C(=O)O)c6)c(O)c(C(=O)O)c5)c(O)c(C(=O)O)c4)cc(C(=O)O)c3O)cc(C(=O)O)c2O)cc(Cl)c1O [compound 11]

>  <pIC50>
6.97

$$$$

====

Study target: protein synthesis in rabbit reticulocyte lysates
Protocol summary: Inhibition of protein synthesis in rabbit reticulocyte lysates (luciferase mRNA, luminescence)
Run conditions: luciferase mRNA, 30 °C, 90 min; read-out: EC50 (50% inhibitory concentration)
Property label: EC50

>  <Compound>
C[C@@H]1C[C@@H]([C@H](O)CC2CC(=O)NC(=O)C2)C(=O)[C@@H](C)C1 [Cycloheximide]

>  <Property label>
EC50

>  <Endpoint value>
0.106 µM

$$$$
>  <Compound>
O=C(O)c1cc(Cc2cc(Cc3cc(Cc4cc(Cc5cc(Cc6cc(Cl)c(O)c(C(=O)O)c6)c(O)c(C(=O)O)c5)c(O)c(C(=O)O)c4)cc(C(=O)O)c3O)cc(C(=O)O)c2O)cc(Cl)c1O

>  <Property label>
EC50

>  <Endpoint value>
28.1 µM

$$$$

====

Study target: yeast 80S ribosomes
Protocol summary: Ligand–ribosome binding via fluorescence anisotropy
Run conditions: purified yeast ribosomes, discussion value

>  <Chemical string>
O=C(O)c1cc(Cc2cc(Cc3cc(Cc4cc(Cc5cc(Cc6cc(Cl)c(O)c(C(=O)O)c6)c(O)c(C(=O)O)c5)c(O)c(C(=O)O)c4)cc(C(=O)O)c3O)cc(C(=O)O)c2O)cc(Cl)c1O

>  <Kd>
~200 nM

$$$$
